Measured values drawn from ChEMBL document CHEMBL3997765 for this set.

molecular target: Mitogen-activated protein kinase 14 (Homo sapiens, UniProt Q16539); test: Inhibition of full length recombinant human GST-tagged p38alpha expressed in Escherichia coli at 10 uM using Ser/Thr04 peptide as substrate in presence of inactive MAPKAPK2 after 1 hr by FRET assay relative to control
Sequence (Q16539 whole entry): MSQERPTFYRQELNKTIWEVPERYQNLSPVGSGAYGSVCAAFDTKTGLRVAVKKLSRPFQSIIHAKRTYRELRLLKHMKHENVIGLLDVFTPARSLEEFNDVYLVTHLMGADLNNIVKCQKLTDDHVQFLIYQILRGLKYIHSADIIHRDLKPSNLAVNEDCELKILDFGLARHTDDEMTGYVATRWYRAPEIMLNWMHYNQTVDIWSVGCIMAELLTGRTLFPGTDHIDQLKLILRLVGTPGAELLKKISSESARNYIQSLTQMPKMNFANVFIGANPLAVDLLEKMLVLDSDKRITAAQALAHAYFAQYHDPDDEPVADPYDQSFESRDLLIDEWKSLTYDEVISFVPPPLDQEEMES
measurementLabel: inhibition (%)

[
  {
    "compound": "CCCC1=Nc2c(ncnc2[S+]([O-])c2ccccc2)Sc2ccccc21 (centres undefined)",
    "quantitativeResult": 73
  },
  {
    "compound": "c1ccc(Sc2ncnc3c2N=C(c2cccnc2)c2ccccc2S3)cc1",
    "quantitativeResult": 98
  },
  {
    "compound": "Cc1ccc2c(c1)C(c1cccnc1)=Nc1c(NCc3ccccc3)ncnc1S2",
    "quantitativeResult": 18
  },
  {
    "compound": "Fc1ccc(C2=Nc3c(Sc4ccccc4)ncnc3Sc3ccccc32)cc1",
    "quantitativeResult": 7
  },
  {
    "compound": "Cc1ccc(Sc2ncnc3c2N=C(Cc2ccccc2)c2cc(C)ccc2S3)cc1",
    "quantitativeResult": 1
  }
]

A. c1ccc(C2=Nc3c(ncnc3N3CCCC3)Sc3ccccc32)cc1
B. Cc1ccc2c(c1)C(Cc1ccccc1)=Nc1c(NCc3ccccc3)ncnc1S2
C. Cc1ccc(C2=Nc3c(Sc4ccc(Cl)cc4)ncnc3Sc3ccc(Cl)cc32)cc1
D. Cc1ccc(C2=Nc3c(ncnc3[S+]([O-])c3ccc(C)cc3)Sc3ccc(C)cc32)cc1 (centres undefined)
Request: In this exercise, place the 4 compounds in ascending sequence of their recorded inhibition. To answer, write out the labels according to the requested order.
Result: A, C, B, D

###

biological target: Mitogen-activated protein kinase 14 (Homo sapiens, UniProt Q16539); experiment: Inhibition of full length recombinant human GST-tagged p38alpha expressed in Escherichia coli at 10 uM using Ser/Thr04 peptide as substrate in presence of inactive MAPKAPK2 after 1 hr by FRET assay relative to control
measurementLabel: inhibition (%)

Answered cases to consult:
[
  {
    "smilesInput": "Cc1ccc(Sc2ncnc3c2N=C(c2ccccc2)c2cc(C)ccc2S3)cc1",
    "resultUnit": "%",
    "inhibition": 12
  },
  {
    "smilesInput": "CCCCNc1ncnc2c1N=C(c1ccccc1)c1cc(C)ccc1S2",
    "resultUnit": "%",
    "inhibition": -4
  }
]

a. Cc1ccc2c(c1)C(c1ccc(F)cc1)=Nc1c(NCCO)ncnc1S2
b. c1ccc(Sc2ncnc3c2N=C(c2ccccc2)c2ccccc2S3)cc1
c. COc1ccc(Sc2ncnc3c2N=C(Cc2ccccc2)c2cc(OC)ccc2S3)cc1
d. CCCCNc1ncnc2c1N=C(c1ccccc1)c1cc(Cl)ccc1S2
Request: In this exercise, place the 4 molecules in ascending sequence of their recorded inhibition. To answer, write out the labels according to the requested order.
Result: d, a, c, b

###

molecular target: Mitogen-activated protein kinase 14 (Homo sapiens, UniProt Q16539); experiment: Inhibition of full length recombinant human GST-tagged p38alpha expressed in Escherichia coli at 10 uM using Ser/Thr04 peptide as substrate in presence of inactive MAPKAPK2 after 1 hr by FRET assay relative to control
measurementLabel: inhibition (%)

[
  {
    "compound": "Cc1ccc(Sc2ncnc3c2N=C(c2ccc(F)cc2)c2cc(C)ccc2S3)cc1",
    "inhibition, %": 0
  },
  {
    "compound": "CCCC1=Nc2c(Sc3ccccc3)ncnc2Sc2ccccc21",
    "inhibition, %": 11
  },
  {
    "compound": "Cc1ccc(C2=Nc3c(NC4CCCCC4)ncnc3Sc3ccc(Cl)cc32)cc1",
    "inhibition, %": 11
  },
  {
    "compound": "Cc1ccc(S(=O)(=O)c2ncnc3c2N=C(c2ccccc2)c2cc(C)ccc2[S+]3[O-])cc1 (stereo unspecified)",
    "inhibition, %": 100
  },
  {
    "compound": "c1ccc(CC2=Nc3c(Sc4ccccc4)ncnc3Sc3ccccc32)cc1",
    "inhibition, %": 9
  }
]

A. Clc1ccc(Sc2ncnc3c2N=C(c2ccccc2)c2cc(Cl)ccc2S3)cc1
B. Clc1ccc(Sc2ncnc3c2N=C(Cc2ccccc2)c2cc(Cl)ccc2S3)cc1
Request: Hi there! Just curious which has the higher inhibition between A and B . Identify your selection by its label.
Result: A

###

target: Mitogen-activated protein kinase 14 (Homo sapiens); assay: Inhibition of full length recombinant human GST-tagged p38alpha expressed in Escherichia coli at 10 uM using Ser/Thr04 peptide as substrate in presence of inactive MAPKAPK2 after 1 hr by FRET assay relative to control
measurementLabel: inhibition (%)

Answered cases to consult:
[
  {
    "molecule": "Cc1ccc(Sc2ncnc3c2N=C(c2cccnc2)c2cc(C)ccc2S3)cc1",
    "inhibition [%]": 4
  },
  {
    "molecule": "Cc1ccc([S+]([O-])c2ncnc3c2N=C(c2cccnc2)c2cc(C)ccc2S3)cc1 (centres undefined)",
    "inhibition [%]": 100
  }
]

P. Cc1ccc(C2=Nc3c(NCc4ccccc4)ncnc3Sc3ccc(Cl)cc32)cc1
Q. Cc1ccc(C2=Nc3c(ncnc3[S+]([O-])c3ccc(Cl)cc3)Sc3ccc(Cl)cc32)cc1 (centres undefined)
Request: For the pair P and Q , which member has the lower inhibition number? Identify your selection by its label.
Result: P
(P: -2%, Q: 99%)

a. Cc1ccc([S+]([O-])c2ncnc3c2N=C(c2ccccc2)c2cc(C)ccc2S3)cc1 (centres undefined)
b. CCCC1=Nc2c(NCc3ccccc3)ncnc2Sc2ccccc21
Request: For the pair a and b , which member has the lower inhibition number? Identify your selection by its label.
Result: b

###

molecular target: Mitogen-activated protein kinase 14 (Homo sapiens, UniProt Q16539); assay: Inhibition of full length recombinant human GST-tagged p38alpha expressed in Escherichia coli at 10 uM using Ser/Thr04 peptide as substrate in presence of inactive MAPKAPK2 after 1 hr by FRET assay relative to control
measurementLabel: inhibition (%)

Answered cases to consult:
[
  {
    "compound": "Cc1ccc2c(c1)C(c1ccc(F)cc1)=Nc1c(N)ncnc1S2",
    "experimentalSystem": "Mitogen-activated protein kinase 14 (Homo sapiens, UniProt Q16539)",
    "inhibition (%)": 4
  },
  {
    "compound": "Cc1ccc(C2=Nc3c(ncnc3S(=O)(=O)c3ccc(C)cc3)[S+]([O-])c3ccc(C)cc32)cc1 (stereo not drawn)",
    "experimentalSystem": "Mitogen-activated protein kinase 14 (Homo sapiens, UniProt Q16539)",
    "inhibition (%)": 100
  },
  {
    "compound": "[O-][S+](c1ccc(Cl)cc1)c1ncnc2c1N=C(c1ccccc1)c1cc(Cl)ccc1S2 (stereo not drawn)",
    "experimentalSystem": "Mitogen-activated protein kinase 14 (Homo sapiens, UniProt Q16539)",
    "inhibition (%)": 98
  },
  {
    "compound": "CCCC1=Nc2c(Sc3ccc(C)cc3)ncnc2Sc2ccc(C)cc21",
    "experimentalSystem": "Mitogen-activated protein kinase 14 (Homo sapiens, UniProt Q16539)",
    "inhibition (%)": 16
  },
  {
    "compound": "CC1=Nc2c(Sc3ccccc3)ncnc2Sc2ccccc21",
    "experimentalSystem": "Mitogen-activated protein kinase 14 (Homo sapiens, UniProt Q16539)",
    "inhibition (%)": 37
  }
]

a. Cc1ccc2c(c1)C(Cc1ccccc1)=Nc1c(NC3CCCCC3)ncnc1S2
b. O=[N+]([O-])c1ccccc1C1=Nc2c(Sc3ccccc3)ncnc2Sc2ccccc21
Request: For the pair a and b , which member has the lower inhibition number? Identify your selection by its label.
Result: a
